Test system: U251 CNS
experiment-summary: NCI-60 one-dose screen, 48 h
protocol-conditions: 10 µM unless noted
About 83,000 compounds went through this panel and 20% of them were active in at least one assay; those are over-represented in the sample as a whole. Active and inactive are the calls of the source. The calls were made as follows: active = growth percent below 10; inactive = the rest.
Outcome codes: T for active, F for inactive

[[record]]
compound = "COC(=O)c1nc(-c2ccc(C)cc2)oc1Sc1ccc(C)cc1"
discrete_label = "F"

[[record]]
compound = "CCN1C(=O)N(c2ccccc2)C2NC(=S)N(/N=C/C=C/c3ccccc3)C21 (stereo not drawn)"
discrete_label = "F"

[[record]]
compound = "COc1ccc(/C(C)=C(\\c2ccc(OCCN3CCCCCC3)cc2)c2ccc(OC(=O)C3CCCCC3)cc2)cc1"
discrete_label = "T"

[[record]]
compound = "CCN(c1cc(-c2ccc(CN3CCC(/C=C/S(=O)(=O)c4ccccc4)CC3)cc2)cc(C(=O)NCc2c(C)cc(C)[nH]c2=O)c1C)C1CCOCC1"
discrete_label = "F"

[[record]]
compound = "CC[C@@H]1NC(=O)[C@H]([C@H](O)[C@H](C)C/C=C/c2ccc(CN3C(=O)C(C)=C(C)C3=O)cc2)N(C)C(=O)[C@H](C(C)C)N(C)C(=O)[C@H](CC(C)C)N(C)C(=O)[C@H](CC(C)C)N(C)C(=O)[C@@H](C)NC(=O)[C@H](C)NC(=O)[C@H](CC(C)C)N(C)C(=O)[C@H](C(C)C)NC(=O)[C@H](CC(C)C)N(C)C(=O)CN(C)C1=O"
discrete_label = "F"

[[record]]
compound = "Cc1cccc(Cc2cnc(NC(=O)CCCOc3ccc(Cl)cc3)s2)c1"
discrete_label = "F"

[[record]]
compound = "COc1ccc(/C=N\\Nc2nc(SCC(C)C)nc(-c3ccc(OC)cc3)c2C#N)cc1"
discrete_label = "T"

[[record]]
compound = "C[C@@H]1O[C@@H](O[C@H]2[C@@H](OC(=O)[C@]34CCC(C)(C)C[C@H]3C3=CC[C@@H]5[C@@]6(C)C[C@H](O)[C@H](O[C@@H]7O[C@H](CO)[C@@H](O)[C@H](O)[C@H]7O)[C@@](C)(CO)[C@@H]6CC[C@@]5(C)[C@]3(C)C[C@H]4O)OC[C@@H](O)[C@@H]2O)[C@H](O)[C@H](O[C@@H]2OC[C@@H](O)[C@H](O[C@@H]3OC[C@](O)(CO)[C@H]3O[C@@H]3OC[C@@H](O)[C@H](O)[C@H]3O)[C@H]2O)[C@H]1O[C@@H]1OC[C@](O)(CO)[C@H]1O"
discrete_label = "F"

[[record]]
compound = "CCCCCCCCCCCCC[C@H](O)C[C@H](O)[C@H](C)N"
discrete_label = "F"

[[record]]
compound = "Cc1cnc(C(=O)NNc2nc3sc4c(c3c(=O)[nH]2)C(C)CCC4)cn1 (stereo not drawn)"
discrete_label = "F"

[[record]]
compound = "Cc1n(Cc2ccc3ccccc3c2)c(Cl)c(Cl)[n+]1Cc1ccc2ccccc2c1"
discrete_label = "F"

[[record]]
compound = "CCCCC#Cc1c(/C=C(\\CCCC)SCC)n(C)c(=O)[nH]c1=O"
discrete_label = "F"

[[record]]
compound = "CCOC(=O)c1c(-c2ccc(C)cc2)c(C#N)c(=O)n(-c2cccc(C(F)(F)F)c2)c1N"
discrete_label = "F"

[[record]]
compound = "O=C(/C=C/C12c3ccccc3C(c3ccccc31)C1C(=O)NC(=O)C12)c1ccncc1 (stereo not drawn)"
discrete_label = "T"

[[record]]
compound = "CC(=O)c1nn(-c2ccccc2)/c(=N/N=Cc2cn(-c3ccccc3)nc2-c2cc3ccccc3oc2=O)s1"
discrete_label = "F"

[[record]]
compound = "COC1=CC(c2ccc[nH]2)=N/C1=C\\c1[nH]c(C)c(C(=O)Oc2ccccc2)c1C"
discrete_label = "T"

[[record]]
compound = "CCNC(=O)Oc1ccc(/C(=C(/C)Cc2ccc(OC)cc2)c2ccc(OCCN(CC)CC)cc2)cc1"
discrete_label = "F"

[[record]]
compound = "CCOC(=O)C(=CCC(C)C)C(=O)OCC"
discrete_label = "F"

[[record]]
compound = "COc1nc(=O)n(C2C=CC(=O)O2)cc1F (stereo not drawn)"
discrete_label = "F"

[[record]]
compound = "Cc1nc2sc(C(=O)Nc3cccc(Cl)c3C)c(N)c2cc1C(O)c1ccccc1 (stereo not drawn)"
discrete_label = "T"

[[record]]
compound = "[2H]C([2H])([2H])Oc1cc(F)ccc1/C=C/C(=O)/C=C(/C=C/c1ccc(F)cc1OC([2H])([2H])[2H])OB(F)F"
discrete_label = "F"

[[record]]
compound = "O=C(/C=C/c1ccc(F)cc1)Nc1ncc(Cc2ccc(F)cc2)s1"
discrete_label = "F"

[[record]]
compound = "CCN(CC)CCOc1ccccc1C"
discrete_label = "F"

[[record]]
compound = "COc1ccc(C(c2cc(OC)c(OC)c(OC)c2)n2ccnc2)cc1O (stereo not drawn)"
discrete_label = "F"

[[record]]
compound = "OB(O)c1ccsc1-c1nc2ccc3[nH]ncc3c2c2c1CCCC2"
discrete_label = "F"

[[record]]
compound = "CCCCCCCCN(CCCCCCCC)CC(O)c1cc(Cl)ccc1OC (stereo not drawn)"
discrete_label = "F"

[[record]]
compound = "O=C(Nc1ccc2ccccc2c1)c1cc2ccccc2cc1O"
discrete_label = "F"

[[record]]
compound = "COc1ccc(/C=N/C2=C(C#N)C(c3ccccc3)c3c(ccc4ccccc34)O2)cc1 (stereo not drawn)"
discrete_label = "F"

[[record]]
compound = "CCC(=C(c1ccc(OCCCN(C)C)cc1)c1ccc(OCCCN(C)C)cc1)c1ccc(Cl)cc1"
discrete_label = "T"

[[record]]
compound = "COc1ccc(-c2cc(-c3cccnc3)nc3sc4c(Cl)nnnc4c23)cc1OC"
discrete_label = "F"

[[record]]
compound = "Clc1ccc2c(c1)N(c1ncnc3ccc(-c4cnc5[nH]ccc5c4)cc13)CC2"
discrete_label = "F"

[[record]]
compound = "C/C=C(/C)C(=O)O[C@@H]1CC(C)(C)CC2C34OC(=O)[C@@]21CC[C@@]3(C)[C@]1(C)CCC2C(C)(C)C(=O)CC[C@]2(C)C1C[C@@H]4Cl (stereo partly drawn)"
discrete_label = "F"

[[record]]
compound = "NS(=O)(=O)OCC1OC(n2cnc3cncnc32)C(O)C1O (stereo not drawn)"
discrete_label = "T"


---

Tested on: SW-620 colon
experiment-summary: NCI-60 one-dose screen, 48 h
protocol-conditions: 10 µM unless noted
Compounds without any hit were thinned out: in the full panel of roughly 83,000, 20% have a hit. Active and inactive are the calls of the source. The calls were made as follows: active = growth percent below 10; inactive = the rest.
Possible outcomes: Y for active, N for inactive

[[record]]
compound = "c1ccc(Cc2cccc[n+]2C(c2ccccc2)c2ccccc2)cc1"
discrete_label = "N"

[[record]]
compound = "Cc1cccc(-c2nnc(SCC(=O)Nc3ncc(Cc4ccccc4)s3)n2N2C(=O)CSC2=S)c1"
discrete_label = "N"

[[record]]
compound = "CCOC(=O)c1cnn(-c2ccc(S(N)(=O)=O)cc2)c1N"
discrete_label = "N"

[[record]]
compound = "CCCCCCCCCCCCCCCCCCOc1cccc(CC(=O)OCC[N+](CC)(CC)CC)c1"
discrete_label = "N"

[[record]]
compound = "COc1ccc(/C=C/C(=O)c2cc3c(N)c(C(=O)Nc4ccccc4Cl)sc3nc2C)cc1"
discrete_label = "N"

[[record]]
compound = "Nc1nc(Nc2ccc(F)cc2)nn1C(=O)c1cc(Cl)ccc1Cl"
discrete_label = "N"

[[record]]
compound = "Cc1nc2sc(C(=O)Nc3cccc4ncccc34)c(N)c2cc1C(C)O (centres undefined)"
discrete_label = "N"

[[record]]
compound = "C=C(CNCCc1ccc(O)cc1)[C@@H]1CC[C@]2(CO)CC[C@]3(C)[C@H](CC[C@@H]4[C@@]5(C)CCC(NCCc6ccc(O)cc6)C(C)(C)[C@@H]5CC[C@]43C)[C@@H]12 (some centres undefined)"
discrete_label = "Y"

[[record]]
compound = "O=C(/C=C/c1cccs1)Nc1ncc(Cc2ccc(Cl)c(Cl)c2)s1"
discrete_label = "N"


---

System: DU-145 prostate
experiment-summary: NCI-60 one-dose screen, 48 h (100 = growth as untreated, 0 = no growth, -100 = all killed)
protocol-conditions: 10 µM unless noted
This is part of a sample that, as a whole, favours compounds with a hit. Of some 83,000 tested, about 20% had one in any assay.
Lab note: compare growth with 70%, writing Y if less and N if equal or more.

[[record]]
smiles_input = "Nc1ncc(-c2ccc3ncnc(N4CCc5ccc(Cl)cc54)c3c2)cc1C(F)(F)F"
discrete_label = "Y"

[[record]]
smiles_input = "CSc1nnc(-c2cc3c([nH]c4ccccc43)c(-c3cccc(O)c3)n2)n1-c1ccc(C)cc1"
discrete_label = "Y"

[[record]]
smiles_input = "COc1cc(C=O)ccc1Oc1ccc([N+](=O)[O-])cc1[N+](=O)[O-]"
discrete_label = "N"

[[record]]
smiles_input = "CC(C)(C)c1cc(C(C)(C)c2ccccc2)cc(Cc2cc(C(C)(C)c3ccccc3)cc(C(C)(C)C)c2O)c1O"
discrete_label = "N"

[[record]]
smiles_input = "O=C(CCCOc1ccc(Br)cc1)Nc1ncc(Cc2ccc(F)cc2)s1"
discrete_label = "N"

[[record]]
smiles_input = "C=CCOc1ccc(/C=C2\\SC(=S)N(CCc3ccc(O)cc3)C2=O)cc1"
discrete_label = "N"

[[record]]
smiles_input = "CC1(C)C(N)=Nc2cc(OCCCN3Cc4ccc(OCCc5cn(CC(=O)N6CCC(CCN7CCCC7)CC6)nn5)cc4C3)c(OCC3CC3)cc21"
discrete_label = "N"

[[record]]
smiles_input = "COc1ccc(-c2c[nH]c(C(=O)O)c2-c2cc(OC)c(OC)c(OC)c2)cc1"
discrete_label = "Y"

[[record]]
smiles_input = "Cc1ccc(C(=O)Nc2nc3c(s2)CN(Cc2ccccc2)CC3)cn1"
discrete_label = "N"

